- TARGET_UNDER_TEST: GDP-bound KRAS wild-type protein (Homo sapiens)
- Sequence (P01116 whole entry): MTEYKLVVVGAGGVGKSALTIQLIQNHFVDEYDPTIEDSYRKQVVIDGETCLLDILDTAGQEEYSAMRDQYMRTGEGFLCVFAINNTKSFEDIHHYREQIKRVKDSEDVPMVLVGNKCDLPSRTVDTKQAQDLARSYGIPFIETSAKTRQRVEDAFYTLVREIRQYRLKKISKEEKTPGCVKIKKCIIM
- MEASUREMENT_DESCRIPTION: Binding to KRAS by surface plasmon resonance (SPR), Single Cycle Kinetics
- MEASUREMENT_CONDITIONS: SPR, Single Cycle Kinetics, GDP-bound KRAS wild-type protein; read-out: KRAS KD
Parameter: Kd. Scope: all listed entries.

>  <ENTRY_SMILES>
CCC[C@H]1C(=O)N[C@@H]([C@@H](C)CC)C(=O)N(C)CC(=O)N(C)[C@H]2C/C=C\CCN(C2=O)[C@@H](Cc2ccc(C)cc2)C(=O)N(C)CC(=O)N[C@@H](CCc2ccc(C(F)(F)F)c(Cl)c2)C(=O)N2C[C@H](OCC)C[C@H]2C(=O)NC2(CC(C)(C)C2)C(=O)N(C)[C@@H](CC(F)(F)F)C(=O)N(C)[C@H](C(=O)N(C)C)CC(=O)N1C

>  <UNIT_OF_MEASUREMENT>
nM

>  <Kd>
0.82

$$$$
>  <ENTRY_SMILES>
CCO[C@@H]1C[C@H]2C(=O)NC3(CC=CC3)C(=O)N(C)[C@@H](C3CCCC3)C(=O)N(CC)[C@H](C(=O)N3CCOCC3)CC(=O)N(C)[C@@H](CC(C)C)C(=O)N[C@@H]([C@@H](C)CC)C(=O)N(C)CC(=O)N(C)[C@H]3CCCCCN(C3=O)[C@@H](Cc3ccc(C(F)(F)F)cc3)C(=O)N(C)CC(=O)N[C@@H](CCc3cc(F)c(C(F)(F)F)c(F)c3)C(=O)N2C1

>  <UNIT_OF_MEASUREMENT>
nM

>  <Kd>
7.2

$$$$
>  <ENTRY_SMILES>
CCO[C@@H]1C[C@H]2C(=O)NC3(CC(C)(C)C3)C(=O)N(C)[C@@H](C(CC)CC)C(=O)N(C)[C@H](C(=O)N(C)C)CC(=O)N(C)[C@@H](C)C(=O)N[C@@H]([C@@H](C)CC)C(=O)N(C)CC(=O)N(C)[C@H]3C/C=C\CCN(C3=O)[C@@H](Cc3ccc(C)cc3)C(=O)N(C)CC(=O)N[C@@H](CCc3ccc(C(F)(F)F)c(Cl)c3)C(=O)N2C1

>  <UNIT_OF_MEASUREMENT>
nM

>  <Kd>
3.8

$$$$
>  <ENTRY_SMILES>
CCC[C@H]1C(=O)N[C@@H]([C@@H](C)CC)C(=O)N(C)CC(=O)N(C)[C@H]2C/C=C\CCN(C2=O)[C@@H](Cc2ccc(C(F)(F)F)cc2)C(=O)N(C)CC(=O)N[C@@H](CCc2ccc(Cl)c(Cl)c2)C(=O)N2C[C@H](OCC)C[C@H]2C(=O)NC2(CC(C)(C)C2)C(=O)N(C)[C@@H](C2CCCC2)C(=O)N(C)[C@H](C(=O)N(C)C)CC(=O)N1C

>  <UNIT_OF_MEASUREMENT>
nM

>  <Kd>
0.15

$$$$
>  <ENTRY_SMILES>
CCO[C@@H]1C[C@H]2C(=O)NC3(CC(C)(C)C3)C(=O)N(C)[C@@H](C(CC)CC)C(=O)N(C)[C@H](C(=O)N(C)C)CC(=O)N(C)[C@H]3CCCCCCc4ccc(cc4)C[C@@H](C(=O)N(C)CC(=O)N[C@@H](CCc4ccc(C(F)(F)F)c(OC)c4)C(=O)N2C1)N1CC/C=C\C[C@@H](C1=O)N(C)C(=O)CN(C)C(=O)[C@H]([C@@H](C)CC)NC3=O

>  <UNIT_OF_MEASUREMENT>
nM

>  <Kd>
0.1

$$$$
>  <ENTRY_SMILES>
CCO[C@@H]1C[C@H]2C(=O)NC3(CCC3)C(=O)N(C)[C@@H](C3CCCC3)C(=O)N(CC)[C@H](C(=O)N3CCOCC3)CC(=O)N(C)[C@@H](CCOC)C(=O)N[C@@H]([C@@H](C)CC)C(=O)N(C)CC(=O)N(C)[C@H]3CCCCCN(C3=O)[C@@H](Cc3ccc(C(F)(F)F)cc3)C(=O)N(C)CC(=O)N[C@@H](CCc3cc(F)c(C(F)(F)F)c(F)c3)C(=O)N2C1

>  <UNIT_OF_MEASUREMENT>
nM

>  <Kd>
3.4

$$$$
